tested on: Human immunodeficiency virus 1; assay: Antiviral activity against HIV-1 harboring RT E138K mutant infected in human MT4 cells assessed as protection against virus-induced cytopathic effect incubated for 5 days by MTT assay; type: functional, organism-based; conditions: Human immunodeficiency virus 1, MT4, 120 h
readoutName: EC50

smilesRecord	EC50
CCOC(=O)c1cnc(NC2CCN(Cc3ccncc3)CC2)nc1Oc1c(C)cc(-c2ccc(C#N)cc2)cc1C	73 nM
CCOC(=O)c1cnc(NC2CCN(Cc3ccc(S(=O)(=O)NC)cc3)CC2)nc1Oc1c(C)cc(-c2ccc(C#N)cc2)cc1C	38 nM
CCOC(=O)c1cnc(NC2CCN(Cc3ccc(S(N)(=O)=O)cc3)CC2)nc1Oc1c(C)cc(-c2ccc(C#N)cc2)cc1C	83 nM
CCOC(=O)c1cnc(NC2CCN(Cc3cccc(C(=O)NC)c3)CC2)nc1Oc1c(C)cc(-c2ccc(C#N)cc2)cc1C	51 nM
CCOC(=O)c1cnc(NC2CCN(Cc3ccc(C(=O)NC)cc3)CC2)nc1Oc1c(C)cc(-c2ccc(C#N)cc2)cc1C	47 nM

Give me EC50 for each of these compounds, listed below.
1. CCOC(=O)c1cnc(NC2CCN(Cc3cccc(C#N)c3)CC2)nc1Oc1c(C)cc(-c2ccc(C#N)cc2)cc1C
2. Cc1cc(C#N)cc(C)c1Oc1nc(Nc2ccc(C#N)cc2)nc(N)c1Br
3. Cc1ccnc2c1NC(=O)c1cccnc1N2C1CC1

Output:
1. 81 nM
2. 13 nM
3. 153 nM
